Target protein (sequence): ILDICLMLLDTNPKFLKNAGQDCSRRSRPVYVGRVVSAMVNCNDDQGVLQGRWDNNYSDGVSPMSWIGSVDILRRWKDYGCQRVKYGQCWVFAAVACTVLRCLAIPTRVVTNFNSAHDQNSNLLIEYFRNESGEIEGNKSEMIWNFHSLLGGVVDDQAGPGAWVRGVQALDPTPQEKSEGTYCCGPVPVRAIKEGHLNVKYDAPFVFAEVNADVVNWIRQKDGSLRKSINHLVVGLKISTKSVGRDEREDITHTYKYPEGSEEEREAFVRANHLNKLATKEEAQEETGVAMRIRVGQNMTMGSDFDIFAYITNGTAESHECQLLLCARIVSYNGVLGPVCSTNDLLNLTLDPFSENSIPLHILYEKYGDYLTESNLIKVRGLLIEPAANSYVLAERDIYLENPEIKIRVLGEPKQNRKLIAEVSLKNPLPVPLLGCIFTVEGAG
Task for the reader: assign each of the following compounds its reported pIC50.
API: returns pIC50 as number; meaning -log10 of concentration in mol/L.

Noted for `CCN(CCC(=O)c1nccs1)Cc1ccccc1` : its pIC50 reads 5.59

Noted for `CC(C)N(CCC(=O)c1ccccn1)Cc1ccccc1` : its pIC50 reads 5.96

Noted for `CC(C)N(CCC(=O)c1nccs1)Cc1ccccc1` : its pIC50 reads 5.49

Noted for `CC(C)N(CCO)CCC(=O)c1nccs1` : its pIC50 reads 4.80

Noted for `CC(C)N(CCO)CCC(=O)c1ccc(C#N)cc1` : its pIC50 reads 5.21

Noted for `CC(C)N(CCO)CCC(=O)c1ccc(Cl)cc1` : its pIC50 reads 5.66

Noted for `CCCCN(CCO)CCC(=O)c1ccc(Br)s1` : its pIC50 reads 5.85

Noted for `CCc1nccnc1C(=O)CCN(CCO)Cc1ccccc1` : its pIC50 reads 4.74

Noted for `CC(C)N(CCC(=O)c1cccnc1)Cc1ccccc1` : its pIC50 reads 6.08

Noted for `O=C(CCN(CCO)Cc1ccccc1)c1ccncn1` : its pIC50 reads 5.31

Noted for `Cc1ccc(C(=O)CCN(Cc2ccccc2)C(C)C)o1` : its pIC50 reads 6.49

Noted for `CC(C)(C)N(CCC(=O)c1cccnc1)Cc1ccccc1` : its pIC50 reads 6.33

Noted for `CCCCN(CCO)CCC(=O)c1cccs1` : its pIC50 reads 4.72

Noted for `CC(C)N(CCC(=O)c1cnccn1)Cc1ccccc1` : its pIC50 reads 6.28

Noted for `CC(C)(C)N(CCO)CCC(=O)c1nccs1` : its pIC50 reads 5.00

Noted for `CCN(CCC(=O)c1ccncc1)Cc1ccccc1` : its pIC50 reads 5.85

Noted for `O=C(CCN(CCO)CCO)c1cnccn1` : its pIC50 reads 5.92

Noted for `CC(C)N(CCC(=O)c1ccc(Cl)cc1)Cc1ccccc1` : its pIC50 reads 5.85

Cited source for all entries: ChEMBL document CHEMBL1159104
